These measurements were taken from patent US20120058997A1.

# Test system: PC-3 Cells
# assay.name: Cell growth inhibition, Cell-Titer-Glo, 96 hours;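 also: luciferase luminescence reflecting cellular ATP, used as a proxy for cell number, with compound-treated cells compared against DMSO vehicle control wells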
# Type: cell-based
# measurement.parameters: Homo sapiens, Table IX (results), read-out: IC50 (PC-3)
quantity.kind: IC50 (µM)
Give bare numbers, in µM.

Hey, quick one: what's IC50 for each of these?
1. Fc1cccc(-c2ccc3ncc(-c4cccc(F)c4)n3n2)c1 [Compound 7-9]
2. CCN1CCC(CNc2ccc3ncc(-c4cc(OC(F)(F)F)ccc4OC)n3n2)CC1 [Compound 7-46]
3. COc1ccc(OC(F)(F)F)cc1-c1cnc2ccc(NCC3CCN(C)CC3)nn12 [Compound 7-42]
4. CN1CCC(CNc2ccc3ncc(-c4cccc(OC(F)(F)F)c4)n3n2)CC1 [Compound 7-29]

Reply:
[21.2, 10.6, 8.96, 4.83]

Hey, quick one: what's IC50 for each of these?
1. Cc1cc2ncc(-c3cccc(OC(F)(F)F)c3)n2nc1NCC1CCN(C)CC1 [Compound 7-37]
2. CC[C@@H](CO)Nc1ccc2ncc(-c3cccc(OC(F)(F)F)c3)n2n1 [Compound 7-32]
3. Fc1ccc(-c2ccc3ncc(-c4ccc(F)cc4)n3n2)cc1 [Compound 7-7]
4. FC(F)(F)Oc1cccc(-c2ccc3ncc(-c4cccc(OC(F)(F)F)c4)n3n2)c1 [Compound 7-13]

Reply:
8.95
29
87.2
63.2

###

# system.name: Pim-1 kinase (Homo sapiens)
# Sequence (P11309 whole entry): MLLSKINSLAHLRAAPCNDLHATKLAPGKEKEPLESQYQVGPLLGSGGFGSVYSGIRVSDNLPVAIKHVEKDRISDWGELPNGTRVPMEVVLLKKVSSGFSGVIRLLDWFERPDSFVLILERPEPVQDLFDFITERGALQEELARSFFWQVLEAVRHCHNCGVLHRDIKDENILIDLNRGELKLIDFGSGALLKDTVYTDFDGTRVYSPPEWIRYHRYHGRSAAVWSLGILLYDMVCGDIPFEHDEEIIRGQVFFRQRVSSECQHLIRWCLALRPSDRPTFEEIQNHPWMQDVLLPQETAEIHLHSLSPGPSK
# assay.name: Promega Kinase-Glo Pim-1 kinase inhibition assay;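 also: in vitro Pim-1 reaction run 2 h at 30 °C, then leftover ATP measured by luciferase luminescence, where signal falls as kinase activity rises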
# Assay type: biochemical
# measurement.parameters: Table X; Kinase-Glo; read-out: IC50 on Pim1
pIC50: −log10 of the molar value.
Please respond with reported pIC50 for every item in the list.

Worked examples, 5 compounds total:
O[C@@H]1CC[C@@H](Nc2ccc3ncc(-c4cccc(OC(F)(F)F)c4)n3n2)C1 [Compound 8-5]    7.00 to 8.00
FC(F)(F)c1cccc(-c2cnc3ccc(NC4CCOCC4)nn23)c1 [Compound 8-33]    7.00 to 8.00
N[C@H]1CC[C@H](Nc2ccc3ncc(-c4cccc(OC(F)(F)F)c4)n3n2)CC1 [Compound 8-8]    > 8.00
N[C@H]1CC[C@H](Nc2ccc3ncc(-c4cccc(Cl)c4)n3n2)CC1 [Compound 8-68]    7.00 to 8.00
FC(F)(F)Oc1cccc(-c2cnc3ccc(NCC4CCSCC4)nn23)c1 [Compound 8-18]    5.30 to 6.00

Hey, quick one: what's pIC50 for each of these?
1. CO[C@H]1CC[C@H](Nc2ccn3ncc(-c4cccc(C(F)(F)F)c4)c3n2)CC1 [Compound 8-57]
2. C[C@]1(O)CC[C@H](Nc2ccc3ncc(-c4cccc(OC(F)(F)F)c4)n3n2)CC1 [Compound 8-9]
3. N[C@H]1CCCN(c2ccc3ncc(-c4cccc(OC(F)(F)F)c4)n3n2)C1 [Compound 8-25]
4. Clc1cccc(-c2cnc3ccc(NC4CCOCC4)nn23)c1 [Compound 8-39]
5. CC(C)(O)CCOc1ccc2ncc(-c3cccc(OC(F)(F)F)c3)n2n1 [Compound 8-41]

Reply:
1: 7.00 to 8.00; 2: 7.00 to 8.00; 3: 7.00 to 8.00; 4: > 8.00; 5: 6.00 to 7.00

Hey, quick one: what's pIC50 for each of these?
1. N[C@H]1CC[C@H](Nc2ccn3ncc(-c4cccc(OC(F)(F)F)c4)c3n2)CC1 [Compound 8-52]
2. CN(C)CC(=O)N1CCC(CNc2ccc3ncc(-c4cccc(OC(F)(F)F)c4)n3n2)CC1 [Compound 8-45]
3. FC(F)(F)Oc1cccc(-c2cnc3ccc(NCC4CCOCC4)nn23)c1 [Compound 8-19]
4. O=S1(=O)CCC(CNc2ccc3ncc(-c4cccc(OC(F)(F)F)c4)n3n2)CC1 [Compound 8-13]
5. C[C@]1(O)CC[C@H](Nc2ccc3ncc(-c4cccc(Cl)c4)n3n2)CC1 [Compound 8-36]

Reply:
["> 8.00", "7.00 to 8.00", "7.00 to 8.00", "6.00 to 7.00", "6.00 to 7.00"]
